# MEASUREMENT_TARGET: HLA-DRB1*0401 (Homo sapiens (Human), UniProt P01903+P01911, A100K/A169T/DEL228-266/F76Y/I96L/K127E/L162R/M171V/N62H/P40V/Q125Y/R42H/S133A/S149N/S66Y/V115G/V209L/W38E)
# ASSAY_METHOD_TEXT: HLA-DR4 HTRF assay
# RUN_CONDITIONS: inhibition of loading of Alexa Fluor 647-labeled Cit-CII peptide onto HLA-DR4 (CLIP cleaved)
READOUT: pIC50
A value of pIC50 is the negative decimal logarithm of a concentration given in moles per litre.

[
  {
    "COMPOUND": "CNC(=O)c1ccc([C@H](Oc2ccc3c(c2)OCCC3=O)c2ccncc2)cc1 (single isomer, unassigned) [Example 34b]",
    "pIC50": 6.16
  },
  {
    "COMPOUND": "NC(=O)c1ccc([C@@H](Oc2ccc3c(c2)OCCC3=O)c2ccccn2)cc1 (single isomer, unassigned) [Example 32a]",
    "pIC50": 5.44
  }
]

# next compound below
Tell me measured pIC50 for COc1cnccc1[C@H](Oc1ccc2c(c1)OCCC2=O)c1ccc(C(N)=O)cc1 (single isomer, unassigned) [Example 23a] please.
6.35

----------
# MEASUREMENT_TARGET: HLA-DRB1*0401 (Homo sapiens (Human), UniProt P01903+P01911, A100K/A169T/DEL228-266/F76Y/I96L/K127E/L162R/M171V/N62H/P40V/Q125Y/R42H/S133A/S149N/S66Y/V115G/V209L/W38E)
# ASSAY_METHOD_TEXT: HLA-DR4 HTRF assay
# RUN_CONDITIONS: inhibition of loading of Alexa Fluor 647-labeled Cit-CII peptide onto HLA-DR4 (CLIP cleaved)
Each entry below carries its recorded log10 of IC50.
Remember, log10 of IC50, in nM.

Known log10 of IC50 results, listed for orientation:
[
  {
    "MOLECULE": "Cc1c(O[C@@H](c2ccncc2)c2cccc(CNC(N)=O)c2)ccc2c1OCCC2=O (single isomer, unassigned) [Example 81a]",
    "log10 of IC50": 2.84
  },
  {
    "MOLECULE": "Cc1c(O[C@H](c2ccc(C(N)=O)cc2)c2cccc(C#N)c2)c(F)cc2c1OCCC2=O (single isomer, unassigned) [Example 92a]",
    "log10 of IC50": 2.48
  },
  {
    "MOLECULE": "C[C@@H]1CC(=O)c2ccc(O[C@@H](c3ccncc3)c3ccc(C(N)=O)cc3)cc2O1 (single isomer, unassigned) [Example 39b]",
    "log10 of IC50": 2.93
  },
  {
    "MOLECULE": "O=C1CCOc2cc(O[C@H](c3ccncc3)c3cccc(O)c3)ccc21 (single isomer, unassigned)",
    "log10 of IC50": 4.15
  },
  {
    "MOLECULE": "Cc1c(O[C@@H](c2ccncc2)c2ccc(C(N)=O)cc2)ccc2c1OCCC2=O (single isomer, unassigned) [Example 48b]",
    "log10 of IC50": 2.84
  }
]

Dear colleague, please send me the reported log10 of IC50 for Cc1cc([C@H](Oc2ccc3c(c2C(C)C)OCCC3=O)c2ccc(C(N)=O)cc2)cc(C)n1 (single isomer, unassigned) [Example 106a] when you can.
2.67

Return log10 of IC50 (reported value) for this molecule: Cc1c(O[C@@H](c2ccc(C(N)=O)cc2)c2ccc(S(C)(=O)=O)cc2)c(F)cc2c1OCCC2=O (single isomer, unassigned) [Example 93b]
2.45

Input NC(=O)c1ccc(C(Oc2ccc3c(c2)OCCC3=O)c2ccncc2)cc1 (racemic) , output reported log10 of IC50.
2.81

Respond only with log10 of IC50 recorded for NC(=O)c1ccc([C@@H](Oc2cc(F)c3c(c2)OCCC3=O)c2ccncc2)cc1 (single isomer, unassigned) [Example 51a]
3.56

Report measured log10 of IC50; entry is CC[C@@H]1COc2cc(O[C@@H](c3ccncc3)c3ccc(C(N)=O)cc3)ccc2C1=O (single isomer, unassigned) [Example 46a]
2.99

Report log10 of IC50 for O=C1CCOc2cc(O[C@@H](c3ccncc3)c3cccc(F)c3)ccc21 (single isomer, unassigned)
3.26

Give the reported log10 of IC50 for this molecule. Cc1cc([C@@H](Oc2ccc3c(c2)OCCC3=O)c2ccncc2)ccc1C(N)=O (single isomer, unassigned) [Example 35a]
2.98

Check the records and state log10 of IC50 for Cc1c(O[C@H]2CCCc3cc(C#N)ccc32)ccc2c1OCCC2=O (single isomer, unassigned) [Example 122b]
2.97

----------
# MEASUREMENT_TARGET: HLA-DRB1*0401 (Homo sapiens (Human), UniProt P01903+P01911, A100K/A169T/DEL228-266/F76Y/I96L/K127E/L162R/M171V/N62H/P40V/Q125Y/R42H/S133A/S149N/S66Y/V115G/V209L/W38E)
# ASSAY_METHOD_TEXT: HLA-DR4 HTRF assay
# Format: binding
# RUN_CONDITIONS: inhibition of loading of Alexa Fluor 647-labeled Cit-CII peptide onto HLA-DR4 (CLIP cleaved)
READOUT: IC50 (nM)
// units = nM; emit number, no label

Below, 3 compounds whose answers are already recorded.
[
  {
    "COMPOUND": "CC[C@@H]1CC(=O)c2ccc(OCc3ccncc3OC)cc2O1 (single isomer, unassigned) [Example 119a]",
    "IC50 / nM": 540
  },
  {
    "COMPOUND": "Cc1c(O[C@@H](c2ccc(C(N)=O)cc2)c2ccc(F)c(F)c2)c(F)cc2c1OCCC2=O (single isomer, unassigned) [Example 91b]",
    "IC50 / nM": 350
  },
  {
    "COMPOUND": "Cc1c(O[C@H]2CCc3cnccc32)ccc2c1OCCC2=O (single isomer, unassigned) [Example 124b]",
    "IC50 / nM": 740
  }
]

Kindly indicate its recorded IC50. Item: O=C1CCOc2cc(OC(c3ccncc3)c3ccccn3)ccc21 (racemic)
1800

Write down IC50 measured for item Cc1c(OC(c2ccncc2)c2ccc(C(N)=O)cc2)ccc2c1OC(C)(C)CC2=O (racemic)
820

Give the reported value of IC50 for this record: Cc1c(OC2CCCc3cc(C#N)ccc32)ccc2c1OCCC2=O (racemic)
1100

Give the reported value of IC50 for this record: NC(=O)c1ccc([C@@H](Oc2cc3c(cc2F)C(=O)CCO3)c2ccncc2)cc1 (single isomer, unassigned) [Example 52a]
230

// fetch IC50 given entry Cc1cc(COc2ccc3c(c2C(C)C)OCCC3=O)cc(C)n1
680

----------
# MEASUREMENT_TARGET: HLA-DRB1*0401 (Homo sapiens (Human), UniProt P01903+P01911, A100K/A169T/DEL228-266/F76Y/I96L/K127E/L162R/M171V/N62H/P40V/Q125Y/R42H/S133A/S149N/S66Y/V115G/V209L/W38E)
# ASSAY_METHOD_TEXT: HLA-DR4 HTRF assay
# RUN_CONDITIONS: inhibition of loading of Alexa Fluor 647-labeled Cit-CII peptide onto HLA-DR4 (CLIP cleaved)
# Lookup of reported pIC50 keyed by entry
Would you please state pIC50, meaning minus log10 of the concentration in mol/L, as a bare number?

Solved entries:
[
  {
    "COMPOUND": "NC(=O)c1ccc([C@@H](Oc2ccc3c(c2)OCCC3=O)c2cccnc2)cc1 (single isomer, unassigned) [Example 31a]",
    "pIC50": 6.07
  },
  {
    "COMPOUND": "NC(=O)c1ccc([C@@H](Oc2ccc3c(c2)OCCC3=O)c2ccc(Cl)cc2)cc1 (single isomer, unassigned) [Example 30a]",
    "pIC50": 6.03
  },
  {
    "COMPOUND": "CC[C@@H]1CC(=O)c2ccc(O[C@@H](c3ccncc3)c3ccc(C(N)=O)cc3)cc2O1 (single isomer, unassigned) [Example 40a]",
    "pIC50": 5.82
  },
  {
    "COMPOUND": "N#Cc1ccc([C@@H](Oc2ccc3c(c2)OCCC3=O)c2ccncc2)cc1 (single isomer, unassigned) [Example 10a]",
    "pIC50": 6.02
  },
  {
    "COMPOUND": "Cc1c(O[C@H](c2ccncc2)c2ccc(C(N)=O)cc2OCC(C)C)ccc2c1OCCC2=O (single isomer, unassigned) [Example 85a]",
    "pIC50": 6.09
  }
]

Output pIC50 of NC(=O)c1ccc([C@@H](Oc2ccc3c(c2)OCCC3=O)c2ccnc(N)c2)cc1 (single isomer, unassigned) [Example 28a]
5.74

Indicate its recorded pIC50; the compound in question is Cc1c(O[C@H](c2ccc(C(N)=O)cc2)c2cccc(C#N)c2)ccc2c1OCCC2=O (single isomer, unassigned) [Example 60a]
5.74

Provide measured pIC50 value, entry: Cc1c(O[C@H](c2ccc(F)cc2)c2ccc(C(N)=O)cc2)ccc2c1OCCC2=O (single isomer, unassigned) [Example 66b]
5.62

Return pIC50 for the following compound: CNC(=O)c1ccc([C@@H](Oc2ccc3c(c2)OCCC3=O)c2ccncc2)cc1 (single isomer, unassigned) [Example 34a]
6.10

Indicate its recorded pIC50; the compound in question is Cc1c(OC2CCCc3cc(C(N)=O)ccc32)ccc2c1OCCC2=O (racemic) [Example 123]
6.28

State its pIC50 for this compound: Cc1c(O[C@@H](c2ccncc2)c2ccc(C(N)=O)c(F)c2)c(F)cc2c1OCCC2=O (single isomer, unassigned) [Example 95b]
6.66

Could you please provide reported pIC50 for COc1ccc([C@@H](Oc2ccc3c(c2)OCCC3=O)c2ccncc2)cc1 (single isomer, unassigned) [Example 12a] ? Thanks!
5.70

Return pIC50 for the following compound: COc1ccc([C@H](Oc2c(F)cc3c(c2C)OCCC3=O)c2ccncc2)cc1F (single isomer, unassigned) [Example 97a]
6.39
